The reported measurements were obtained from a melting point compilation (Tetko et al.; mined from patent text by program, amines drawn as free bases though some values may be those of a salt).

A collection of compounds and their measured melting point

*Q* What value of melting point has been recorded for this entry: CNC(=S)C1(c2cnc3ccccc3c2)CCCCC1=CC#N (stereo unspecified)
*A* 108 to 111 °C

*Q* What do we get for CCCOc1cc2c(=O)cc(C(=O)O)[nH]c2ccc1=O ?
*A* > 250 °C

*Q* Also Clc1ccc2[nH]cc(C3=CCC4(CC3)OCCO4)c2c1 , if possible.
*A* 178 to 181 °C

*Q* Again, but for OC1CSC(Oc2cncc(-c3ccc(F)cn3)c2)C(O)C1O (stereo unspecified)
*A* 166 to 190 °C

*Q* Lookup COCOC1CCC2(C)C(=CCC3C2CCC2(C)C(COCc4ccccc4)CCC32)C1 (stereo unspecified)
*A* 75 to 76 °C
